- Tested on: Mannheimia haemolytica
- Procedure Summary: minimum inhibitory concentration (MIC)
- Condition Set: isolate (source animal id): 190
Assay Readout: minimum inhibitory concentration

Compound | Assay Readout | Value Observed
CN(C)[C@@H]1C(O)=C(C(N)=O)C(=O)[C@@]2(O)C(O)=C3C(=O)c4c(O)cccc4[C@@](C)(O)[C@H]3C[C@@H]12 [Tetracycline] | minimum inhibitory concentration | ≤ 0.5 µg/mL
CCCN1C[C@H](C)[C@@H](O)[C@](C)(O)[C@@H](CC)OC(=O)[C@H](C)[C@@H](O[C@H]2C[C@@](C)(OC)[C@@H](O)[C@H](C)O2)[C@H](C)[C@@H](O[C@@H]2O[C@H](C)C[C@H](N(C)C)[C@H]2O)[C@](C)(O)C[C@H]1C [Gamithromycin] | minimum inhibitory concentration | ≤ 1 µg/mL
CCC[C@@H]1C[C@@H](C(=O)N[C@@H]([C@H]2O[C@H](SC)[C@H](O)[C@@H](O)[C@H]2O)[C@H](C)Cl)N(C)C1 [Clindamycin] | minimum inhibitory concentration | 16 µg/mL
CC1(C)S[C@@H]2[C@H](NC(=O)[C@H](N)c3ccccc3)C(=O)N2[C@H]1C(=O)O [Ampicillin] | minimum inhibitory concentration | ≤ 0.25 µg/mL
